All values here come from ChEMBL document CHEMBL4811279.

Record form. Attribute: inhibition. Fill in for each entry.
molecular target: Ribosomal protein S6 kinase alpha-3 (Homo sapiens) (UniProt P51812); test: Inhibition of RSK2 (unknown origin) using Ulight-rpS6 as substrate at 10 uM incubated for 1 hr in presence of ATP by TR FRET assay
Sequence (P51812 whole entry): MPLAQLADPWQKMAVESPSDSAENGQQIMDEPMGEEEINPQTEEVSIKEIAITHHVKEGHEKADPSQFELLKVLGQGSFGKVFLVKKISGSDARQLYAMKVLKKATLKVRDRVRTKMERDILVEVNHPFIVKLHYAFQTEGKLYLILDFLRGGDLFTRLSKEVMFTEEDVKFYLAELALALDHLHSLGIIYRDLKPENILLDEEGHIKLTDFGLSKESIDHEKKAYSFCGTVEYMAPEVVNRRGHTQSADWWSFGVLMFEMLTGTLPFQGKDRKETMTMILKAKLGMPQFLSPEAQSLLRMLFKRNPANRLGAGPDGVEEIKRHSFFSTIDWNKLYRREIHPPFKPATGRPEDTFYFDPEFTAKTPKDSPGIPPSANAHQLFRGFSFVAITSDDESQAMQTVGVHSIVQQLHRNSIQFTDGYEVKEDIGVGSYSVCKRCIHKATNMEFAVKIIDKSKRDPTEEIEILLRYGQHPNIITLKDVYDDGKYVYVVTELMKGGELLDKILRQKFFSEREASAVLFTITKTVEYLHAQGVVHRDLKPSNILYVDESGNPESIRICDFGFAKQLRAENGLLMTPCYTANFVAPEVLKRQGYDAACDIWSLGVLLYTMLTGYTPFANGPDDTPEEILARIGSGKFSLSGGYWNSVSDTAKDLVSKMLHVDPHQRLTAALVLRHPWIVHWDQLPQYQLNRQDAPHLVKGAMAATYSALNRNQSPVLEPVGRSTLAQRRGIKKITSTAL
The response must be a number in % with no trailing unit.

inhibition lookup needed for Oc1c(F)cc(Nc2ncc3ncn(-c4ccc(-c5ccccc5)cc4)c3n2)cc1F , thanks.
49

inhibition lookup needed for Oc1c(F)cc(Nc2ncc3ncn(-c4cccc(OCc5ccccc5)c4)c3n2)cc1F , thanks.
63

inhibition lookup needed for Oc1c(F)cc(Nc2ncc3nc[nH]c3n2)cc1F , thanks.
67

inhibition lookup needed for Oc1c(F)cc(Nc2ncc3ncn(-c4ccc(OCc5ccccc5)cc4)c3n2)cc1F , thanks.
42

inhibition lookup needed for Oc1c(F)cc(Nc2ncc3cc[nH]c3n2)cc1F , thanks.
77
